All values here come from ChEMBL document CHEMBL1151302.

Test system: P388
assay.overview: Cytotoxicity against mouse P388 cells after 3 days by MTT assay
Assay type: functional, cell-based
condition.description: P388, 72 h
IC50 overview
Answer format: numeric, µg/mL implied, no suffix.

Please review the following examples before continuing.
CC(=O)[C@H]1CC[C@]2(O)[C@@H]3CC[C@H]4C[C@H](N)CC[C@]4(C)[C@H]3CC[C@]12C :: 3.6
CC(=O)[C@H]1C[C@H](O)[C@H]2[C@@H]3CC=C4C[C@H](N)CC[C@]4(C)[C@H]3CC[C@@]21C :: 4.1

Which IC50 value is on record for CO[C@H]1C[C@H](O[C@H]2CC[C@@]3(C)C(=CC[C@@H]4[C@@H]3CC[C@]3(C)[C@@H](C(C)=O)C[C@H](O)[C@]43O)C2)O[C@H](C)[C@H]1N [HOLACURTINOL] ? 16
